System: MOLT-4
assay_method_text: Concentration required to inhibit 50% cell growth of MOLT-4 Leukemia cell line
Format: functional
condition_description: Homo sapiens
quantity: GI50 (nM)

Here are 10 molecules together with their reported answers.
[[record]]
cpd_smiles = "COc1cc([C@H]2Cc3ccccc3-c3nc(N)c4ccccc4c32)cc(OC)c1OC"
quantity = "GI50"
observed = 2630

[[record]]
cpd_smiles = "COc1ccc([C@H]2Cc3ccccc3-c3nc(N)c4ccccc4c32)cc1O"
quantity = "GI50"
observed = 14500

[[record]]
cpd_smiles = "Nc1nc2c3ccccc3cc(-c3ccc4c(c3)OCO4)c2c2ccccc12"
quantity = "GI50"
observed = 3310

[[record]]
cpd_smiles = "COc1ccc(-c2cc3ccccc3c3nc(N)c4ccccc4c23)cc1OC"
quantity = "GI50"
observed = 234

[[record]]
cpd_smiles = "Nc1nc2c3ccccc3cc(-c3ccco3)c2c2ccccc12"
quantity = "GI50"
observed = 1200

[[record]]
cpd_smiles = "Nc1nc2c(c3ccccc13)[C@@H](c1ccc3c(c1)OCO3)Cc1ccccc1-2"
quantity = "GI50"
observed = 4790

[[record]]
cpd_smiles = "COc1ccc(-c2cc3ccccc3c3nc(N)c4ccccc4c23)c(OC)c1"
quantity = "GI50"
observed = 933

[[record]]
cpd_smiles = "COc1ccc([C@H]2Cc3ccccc3-c3nc(N)c4ccccc4c32)cc1OC"
quantity = "GI50"
observed = 2950

[[record]]
cpd_smiles = "COc1ccc(OC)c([C@H]2Cc3ccccc3-c3nc(N)c4ccccc4c32)c1"
quantity = "GI50"
observed = 15500

[[record]]
cpd_smiles = "COc1ccc([C@H]2Cc3ccccc3-c3nc(N)c4ccccc4c32)c(OC)c1OC"
quantity = "GI50"
observed = 3470


I: COc1cc(-c2cc3ccccc3c3nc(N)c4ccccc4c23)cc(OC)c1OC
II: COc1cc([C@H]2Cc3ccccc3-c3nc(N)c4ccccc4c32)cc(OC)c1O
Among I and II , whose measured GI50 is the smaller figure? Answer format: the label of the selected item. I
(I: 372 nM, II: 631 nM)

1: COc1ccc(-c2cc3ccccc3c3nc(N)c4ccccc4c23)c(OC)c1OC
2: Nc1nc2c(c3ccccc13)[C@@H](c1ccco1)Cc1ccccc1-2
Higher GI50 between 1 and 2 ? Answer format: the label of the selected item. 2
(2: 3720 nM, 1: 437 nM)
